Task for the reader: assign each of the following molecules its reported chemical recovery into PDMS.
Test: chemical recovery into PDMS from spiked human plasma; higher = better extraction
Conditions: pooled human plasma; extraction method: PES with PDMS; equilibration time (d): 1
One number for each entry, in %.

Completed entries (count: 3):
{"MOLECULE": "O=C1C2CC3C1C1(Cl)C(Cl)C4(Cl)C2C3C1(Cl)C4(Cl)Cl (centres undefined)", "chemical recovery into PDMS [%]": 75.4}
{"MOLECULE": "CC(C)N(C(=O)CCl)c1ccccc1", "chemical recovery into PDMS [%]": 31.9}
{"MOLECULE": "CC(C)(Oc1ccc(CCNC(=O)c2ccc(Cl)cc2)cc1)C(=O)O [Bezafibrate]", "chemical recovery into PDMS [%]": 0.000935}

Batch of 4 molecules: report chemical recovery into PDMS for each.
1. O=P(OCCCl)(OCCCl)OCCCl [Tris(2-chloroethyl)phosphate]
2. c1ccc(/N=N/c2ccccc2)cc1
3. CC(=O)[C@@]1(O)CC[C@H]2[C@@H]3C=C(Cl)C4=CC(=O)[C@@H]5C[C@@H]5[C@]4(C)[C@H]3CC[C@@]21C
4. CO/C=C(/C(=O)OC)c1ccccc1COc1cccc(C(F)(F)F)n1

1. 37.5
2. 26.2
3. 34.4
4. 47

Batch of 2 molecules: report chemical recovery into PDMS for each.
1. C[C@]12CCC(=O)C=C1CC[C@@H]1[C@@H]2CC[C@@]2(C)[C@H]1CC[C@]2(C)O
2. CC(C)Nc1nc(N)nc(Cl)n1

1: 34.6; 2: 11.2

----------
Test: chemical recovery from spiked human plasma; higher = better extraction
Conditions: pooled human plasma; extraction method: solvent precipitation (ACN + hexane)
Task for the reader: assign each of the following molecules its reported chemical recovery.
Give bare numbers, in %.

Completed entries (count: 2):
{"MOLECULE": "Nc1ccc(Sc2ccc(N)cc2)cc1 [4,4'-Thiodianiline]", "chemical recovery, %": 42.1}
{"MOLECULE": "OC(Cc1ccccc1Cl)(Cn1cncn1)C1(Cl)CC1 (stereo not drawn) [Prothioconazole-desthio]", "chemical recovery, %": 89.2}

Record c1ccc2c(c1)[nH]c1cnccc12 [Norharmane] , field chemical recovery: 77.7

----------
Task for the reader: assign each of the following compounds its reported chemical recovery.
Assay: chemical recovery from spiked human plasma; higher = better extraction
Settings: pooled human plasma; extraction method: SPE only (HLB 96-well)
Give bare numbers, in %.

Completed entries (count: 5):
{"COMPOUND": "O=C1C2CC3C1C1(Cl)C(Cl)C4(Cl)C2C3C1(Cl)C4(Cl)Cl (stereo unspecified) [Endrin ketone]", "QUANTITY_UNIT": "%", "chemical recovery": 7.89}
{"COMPOUND": "COc1ccc2c(c1)[nH]c1c(C)nccc12 [Harmine]", "QUANTITY_UNIT": "%", "chemical recovery": 37.3}
{"COMPOUND": "Nc1ccccc1[N+](=O)[O-] [2-Nitroaniline]", "QUANTITY_UNIT": "%", "chemical recovery": 25.1}
{"COMPOUND": "CC(C)(c1ccc(O)cc1)c1ccc(O)cc1 [Bisphenol-A]", "QUANTITY_UNIT": "%", "chemical recovery": 45.4}
{"COMPOUND": "Oc1cc(Cl)c(Cl)c(Cl)c1 [3,4,5-Trichlorophenol]", "QUANTITY_UNIT": "%", "chemical recovery": 45}

Batch of 7 compounds: report chemical recovery for each.
1. CCOc1nc2cccc(C(=O)O)c2n1Cc1ccc(-c2ccccc2-c2nnn[nH]2)cc1 [Candesartan]
2. O=[N+]([O-])/N=C1\NCCN1Cc1ccc(Cl)nc1 [Imidacloprid]
3. CCOP(=S)(OCC)SCCSCC [Disulfoton]
4. CCN(CC)c1nc(C)cc(OP(=S)(OC)OC)n1 [Pirimiphos-methyl]
5. Cn1sc(Cl)cc1=O [Methylchloroisothiazolinone]
6. CN1COCN(Cc2cnc(Cl)s2)/C1=N\[N+](=O)[O-] [Thiamethoxam]
7. O=C(O)CCC(F)(F)C(F)(F)C(F)(F)F [3.3-FTCA]

1: 42; 2: 39.9; 3: 4.52; 4: 36.4; 5: 0.906; 6: 50; 7: 0.288

Batch of 4 compounds: report chemical recovery for each.
1. CCCOC(=O)NCCCN(C)C [Propamocarb]
2. N#Cc1nn(-c2c(Cl)cc(C(F)(F)F)cc2Cl)c(N)c1S(=O)(=O)C(F)(F)F [Fipronil sulfone]
3. O=C(Nc1ccc(Cl)cc1)Nc1ccc(Cl)c(Cl)c1 [Triclocarban]
4. CC(C)c1ccc2sc3ccccc3c(=O)c2c1 [2-Isopropylthioxanthone]

6.68
36.7
35
33.5

Batch of 5 compounds: report chemical recovery for each.
1. Oc1ccc(Cl)cc1 [4-Chlorophenol]
2. CC1(C)[C@H](C=C(Cl)Cl)[C@H]1C(=O)OCc1c(F)c(F)cc(F)c1F [Transfluthrin]
3. Clc1cc(Cl)c(-c2cc(Cl)c(Cl)c(Cl)c2Cl)cc1Cl [PCB180]
4. CCOC(=O)C(C)(C)Oc1ccc(Cl)cc1 [Clofibrate]
5. c1ccc2c(c1)c1cccc3ccc4cccc2c4c31 [Benzo(e)pyrene]

1. 35.2
2. 0.85
3. 1.45
4. 3.33
5. 2.35
